# target: DAT (Homo sapiens)
# Sequence (Q01959 whole entry): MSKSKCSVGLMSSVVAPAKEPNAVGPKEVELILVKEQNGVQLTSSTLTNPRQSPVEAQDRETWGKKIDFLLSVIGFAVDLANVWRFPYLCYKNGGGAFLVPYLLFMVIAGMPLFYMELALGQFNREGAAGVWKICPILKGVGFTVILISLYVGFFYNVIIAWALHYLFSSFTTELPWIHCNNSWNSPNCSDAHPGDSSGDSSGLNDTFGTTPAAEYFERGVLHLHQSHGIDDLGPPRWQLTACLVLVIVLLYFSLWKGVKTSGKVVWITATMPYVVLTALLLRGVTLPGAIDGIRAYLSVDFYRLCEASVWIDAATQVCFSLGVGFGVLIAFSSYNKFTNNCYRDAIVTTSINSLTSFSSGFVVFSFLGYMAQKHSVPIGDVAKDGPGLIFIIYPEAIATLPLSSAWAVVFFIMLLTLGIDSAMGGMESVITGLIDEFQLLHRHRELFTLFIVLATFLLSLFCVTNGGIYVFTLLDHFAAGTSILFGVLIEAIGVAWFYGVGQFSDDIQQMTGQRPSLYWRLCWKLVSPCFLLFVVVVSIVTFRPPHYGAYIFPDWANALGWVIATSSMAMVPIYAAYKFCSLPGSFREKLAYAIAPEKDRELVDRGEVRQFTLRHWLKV
# protocol: cell-based
# conditionNotes: hDAT cell line; read-out: DA Uptake, Functional Assays (antagonism, EC50)
pEC50: −log10 of the molar value.
A collection of compounds and their measured pEC50

compound	pEC50
O=C(CN1CCC[C@H](COc2ccc(C(F)(F)F)cc2)C1)C1(c2ccc(Cl)cc2)CCC1	> 8.00
OC(CN1CCC[C@@H](CCc2ccccc2)C1)c1ccc(Cl)cc1 (stereo partly shown)	> 8.00
FC(F)(F)c1ccc(OC[C@@H]2CCCN(CC3(c4ccc(Cl)cc4)CCC3)C2)cc1	> 8.00
O[C@H](CN1CCC[C@@H](COc2ccc(C(F)(F)F)cc2)C1)C1(c2ccc(Cl)cc2)CCC1	> 8.00
Clc1ccc(C2(CN3CCC[C@H](COc4ccc5c(c4)OCO5)C3)CCC2)cc1	> 8.00
FC(F)(F)c1ccc(OCC2CCCN(CC3(c4ccc(Cl)cc4)CCC3)C2)cc1 (stereo not shown)	> 7.00
O[C@@H](CN1CCC[C@H](COc2ccc(C(F)(F)F)cc2)C1)C1(c2ccc(Cl)cc2)CCC1	> 8.00
O[C@@H](CN1CCC[C@@H](COc2ccc(C(F)(F)F)cc2)C1)C1(c2ccc(Cl)cc2)CCC1	> 8.00
CC(Oc1ccc(C(F)(F)F)cc1)C1CCCN(CC2(c3ccc(Cl)cc3)CCC2)C1 (stereo not shown)	> 8.00
FC(F)(F)c1ccc(COC[C@H]2CCCN(CC3(c4ccc(Cl)cc4)CCC3)C2)cc1	> 8.00
Fc1ccc(OCC2CCCN(CC3(c4ccc(Cl)cc4)CCC3)C2)cc1 (stereo not shown)	> 8.00
Clc1ccc(C2(CN3CCC[C@@H](CNc4ccccc4)C3)CCC2)cc1	> 7.00
Clc1ccc(C2(CN3CCC[C@@H](COc4ccc5c(c4)OCO5)C3)CCC2)cc1	> 8.00
OC[C@H]1[C@@H](COc2ccc(C(F)(F)F)cc2)CCCN1CC1(c2ccc(Cl)cc2)CCC1 (racemic)	> 7.00
OC(CN1CCCC(COc2ccc(C(F)(F)F)cc2)C1)C1(c2ccccc2OC(F)(F)F)CCC1 (single isomer, unassigned) [compound 224]	< 6.00
FC(F)(F)c1ccc(OC[C@H]2CCCN(CC3(c4ccc(Cl)cc4)CCC3)C2)cc1	> 8.00

###

# target: serotonin transporter (Homo sapiens, UniProt P31645)
# Sequence (P31645 whole entry): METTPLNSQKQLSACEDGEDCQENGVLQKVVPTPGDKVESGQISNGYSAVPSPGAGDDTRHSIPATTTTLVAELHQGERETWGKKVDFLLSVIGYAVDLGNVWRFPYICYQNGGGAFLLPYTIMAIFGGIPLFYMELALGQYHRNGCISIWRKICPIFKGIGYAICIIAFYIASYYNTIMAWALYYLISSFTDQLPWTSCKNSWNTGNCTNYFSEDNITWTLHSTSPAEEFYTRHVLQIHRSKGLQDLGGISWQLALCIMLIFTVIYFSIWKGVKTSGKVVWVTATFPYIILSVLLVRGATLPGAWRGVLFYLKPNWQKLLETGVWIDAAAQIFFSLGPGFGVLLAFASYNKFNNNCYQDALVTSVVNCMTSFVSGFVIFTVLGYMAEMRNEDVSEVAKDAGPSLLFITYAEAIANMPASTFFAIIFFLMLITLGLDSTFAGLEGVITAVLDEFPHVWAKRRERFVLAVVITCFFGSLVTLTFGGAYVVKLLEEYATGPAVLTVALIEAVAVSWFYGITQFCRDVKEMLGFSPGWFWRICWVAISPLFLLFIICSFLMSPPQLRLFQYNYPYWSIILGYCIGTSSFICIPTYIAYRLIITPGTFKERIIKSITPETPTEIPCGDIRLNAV
# protocol: Functional activity, serotonin uptake inhibition in human HEK-293 cell lines
# Type: cell-based
# Design: expressed in transfected cells; host or cells: HEK-293
# conditionNotes: human HEK-293 cell lines; read-out: 5-HT Uptake, Functional Assays (antagonism, EC50)
pEC50: −log10 of the molar value.
A collection of compounds and their measured pEC50

compound	pEC50
FC(F)(F)c1ccc(COC[C@@H]2CCCN(CC3(c4ccc(Cl)cc4)CCC3)C2)cc1 [compound 130]	< 6.00
O[C@@H](CN1CCC[C@H](COc2ccc(C(F)(F)F)cc2)C1)C1(c2ccc(Cl)cc2)CCC1 [compound 125]	> 6.00
Fc1ccc(OCC2CCCN(CC3(c4ccc(Cl)cc4)CCC3)C2)cc1 (stereo not shown) [compound 86]	> 6.00
O[C@@H](CN1CCC[C@@H](COc2ccc(C(F)(F)F)cc2)C1)C1(c2ccc(Cl)cc2)CCC1 [compound 127]	< 6.00
OC(CN1CCCC(COc2ccc(C(F)(F)F)cc2)C1)C1(c2ccccc2OC(F)(F)F)CCC1 (single isomer, unassigned) [compound 225]	< 6.00
O[C@H](CN1CCC[C@@H](COc2ccc(C(F)(F)F)cc2)C1)C1(c2ccc(Cl)cc2)CCC1 [compound 126]	> 6.00
Clc1ccc(C2(CN3CCC[C@@H](CNc4ccccc4)C3)CCC2)cc1 [compound 28]	> 6.00

###

# target: serotonin transporter (Homo sapiens, UniProt P31645)
# protocol: 5-HT uptake: displacement of serotonin ligands in vitro (methods of Gu et al.)
# Format: binding
# conditionNotes: read-out: 5-HT Uptake, Uptake Profile (IC50)

compound	IC50
FC(F)(F)c1ccc(OC[C@@H]2CCCN(CC3(c4ccc(Cl)cc4)CCC3)C2)cc1	> 1000 nM
OC1(COc2ccc(C(F)(F)F)cc2)CCCN(CC2(c3ccc(Cl)cc3)CCC2)C1 (centres unmarked)	> 1000 nM

###

A collection of compounds and their measured IC50
# target: norepinephrine transporter (Homo sapiens)
# protocol: NE uptake: displacement of norephinephrine ligands in vitro (methods of Galli et al.)
# Assay type: binding
# conditionNotes: NE Uptake, Uptake Profile (IC50, nM)
metricName: IC50

compound	observedResult
COc1ccccc1C1(C(O)CN2CCCC(COc3ccc(C(F)(F)F)cc3)C2)CCC1 (stereo not shown)	< 1000 nM
OC[C@H]1[C@@H](COc2ccc(C(F)(F)F)cc2)CCCN1CC1(c2ccc(Cl)cc2)CCC1 (single isomer, unassigned) [compound 132]	< 100 nM
OC(CN1CCCC(CCc2ccccc2)C1)c1ccc(Cl)cc1 (single isomer, unassigned) [compound 141]	< 1000 nM
COC(CC1CCCN(CC2(c3ccc(Cl)cc3)CCC2)C1)c1ccccc1 (stereo in doubt)	< 1000 nM
CO[C@H](CN1CCC[C@H](COc2ccc(C(F)(F)F)cc2)C1)C1(c2ccc(Cl)cc2)CCC1	> 1000 nM
OCC1CCCN(CC2(c3ccc(Cl)cc3)CCC2)C1 (stereo not shown)	> 1000 nM
OC(CN1CCCC(CCc2ccccc2)C1)c1ccc(Cl)cc1 (single isomer, unassigned) [compound 142]	< 1000 nM

###

# target: norepinephrine transporter (Homo sapiens, UniProt P23975)
# Sequence (P23975 whole entry): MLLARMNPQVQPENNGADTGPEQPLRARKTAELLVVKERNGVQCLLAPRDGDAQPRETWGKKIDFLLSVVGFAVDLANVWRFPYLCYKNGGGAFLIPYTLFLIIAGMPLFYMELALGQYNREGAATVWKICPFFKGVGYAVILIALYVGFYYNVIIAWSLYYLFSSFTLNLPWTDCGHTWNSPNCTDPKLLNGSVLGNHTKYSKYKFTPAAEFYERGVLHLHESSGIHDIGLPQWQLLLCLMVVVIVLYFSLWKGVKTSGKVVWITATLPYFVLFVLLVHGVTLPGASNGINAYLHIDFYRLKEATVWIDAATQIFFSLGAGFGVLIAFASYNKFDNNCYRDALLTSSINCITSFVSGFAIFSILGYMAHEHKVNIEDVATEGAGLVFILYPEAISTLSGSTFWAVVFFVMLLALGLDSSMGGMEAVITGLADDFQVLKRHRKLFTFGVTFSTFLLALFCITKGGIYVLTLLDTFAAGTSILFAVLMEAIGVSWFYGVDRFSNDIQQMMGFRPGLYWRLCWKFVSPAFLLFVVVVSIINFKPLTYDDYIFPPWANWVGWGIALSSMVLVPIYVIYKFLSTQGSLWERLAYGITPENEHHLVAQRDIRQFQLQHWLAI
# protocol: NE uptake: displacement of norephinephrine ligands in vitro (methods of Galli et al.)
# Format: binding
# conditionNotes: read-out: NE Uptake, Uptake Profile (IC50)
pIC50: −log10 of the molar value.
A collection of molecules and their measured pIC50
metricName: pIC50

molecule	target	metricName	observedResult
OC(CN1CCCC(COc2ccc(C(F)(F)F)cc2)C1)C1(c2ccccc2OC(F)(F)F)CCC1 (single isomer, unassigned) [compound 225]	norepinephrine transporter (Homo sapiens, UniProt P23975)	pIC50	< 6.00
CN(C[C@@H]1CCCN(CC2(c3ccc(Cl)cc3)CCC2)C1)c1ccccc1	norepinephrine transporter (Homo sapiens, UniProt P23975)	pIC50	< 6.00
CC(C)(CN1CCCC(COc2ccc(C(F)(F)F)cc2)C1)c1ccc(Cl)cc1 (stereo not shown)	norepinephrine transporter (Homo sapiens, UniProt P23975)	pIC50	> 6.00
FC(F)(F)c1ccc(OC[C@@H]2CCCN(CC3(c4ccc(Cl)cc4)CCC3)C2)cc1	norepinephrine transporter (Homo sapiens, UniProt P23975)	pIC50	> 6.00

###

# target: UniProt:Q01959
# protocol: DA uptake: displacement of dopamine ligands in vitro (methods of Gu et al.)
# conditionNotes: DA Uptake, Uptake Profile (IC50, nM), displacement of dopamine ligands in vitro
A collection of molecules and their measured IC50
metricName: IC50

molecule	metricName	observedResult
OC[C@H]1[C@@H](COc2ccc(C(F)(F)F)cc2)CCCN1CC1(c2ccc(Cl)cc2)CCC1 (single isomer, unassigned) [compound 131]	IC50	< 100 nM
OC(CN1CCCC(COc2ccc(OC(F)(F)F)cc2)C1)C1(c2ccc(Cl)cc2)CCC1 (stereo not shown)	IC50	< 10 nM
CC(CN1CCCC(COc2ccc(C(F)(F)F)cc2)C1)C(O)c1ccc(Cl)cc1 (stereo not shown)	IC50	< 10 nM
CO[C@H](CN1CCC[C@H](COc2ccc(C(F)(F)F)cc2)C1)C1(c2ccc(Cl)cc2)CCC1	IC50	< 10 nM
FC(F)(F)c1ccc(COC[C@H]2CCCN(CC3(c4ccc(Cl)cc4)CCC3)C2)cc1	IC50	< 10 nM
O=C(CN1CCCC(COc2ccccc2)C1)C1(c2ccc(Cl)cc2)CCC1 (stereo not shown)	IC50	< 1000 nM
FC(F)(F)c1ccc(OCC2CCCN(CC3COc4ccccc4O3)C2)cc1 (single isomer, unassigned) [compound 179]	IC50	> 1000 nM
CC(CC1CCCN(CC2(c3ccc(Cl)cc3)CCC2)C1)c1ccccc1 (stereo in doubt)	IC50	< 1000 nM
OC(CN1CCCC(COc2ccc(C(F)(F)F)cc2)C1)(c1ccccc1)C1CCCCC1 (stereo not shown)	IC50	> 1000 nM
COc1ccc(OCC2CCCN(CC3(c4ccccc4)CCC3)C2)cc1 (stereo not shown)	IC50	< 1000 nM
OC(CN1CCCC(COc2ccc(OC(F)(F)F)cc2)C1)C1(c2ccc(OC(F)(F)F)cc2)CCC1 (stereo not shown)	IC50	< 100 nM
COC(CN1CCC[C@@H](CCc2ccccc2)C1)c1ccc(Cl)cc1 (stereo partly shown)	IC50	< 100 nM
FC(F)(F)c1ccc(OCC2CCCN(CCc3ccc(Cl)cc3)C2)cc1 (stereo not shown)	IC50	> 1000 nM
COc1ccc(C2(CN3CCC[C@@H](COc4ccc(OC(F)(F)F)cc4)C3)CCC2)cc1	IC50	< 10 nM
OC(CN1CCCC(CCc2ccc(C(F)(F)F)cc2)C1)c1ccc(Cl)cc1 (single isomer, unassigned) [compound 151]	IC50	< 1000 nM
Clc1ccc(C2(CN3CCC[C@H](COc4ccc5c(c4)OCO5)C3)CCC2)cc1	IC50	< 100 nM
